tested on: hepatocellular carcinoma cell line (Hep3B 2.1-7); assay: Tumor cell proliferation inhibition (CTG, 72 h); format: cell-based; settings: Hep3B 2.1-7 cells, class; read-out: Hep3B 2.1-7 range of activity (IC50)
pIC50: −log10 of the molar value.
reported-endpoint: pIC50

[[record]]
compound = "COc1cc2nccc(Oc3c(F)cc(NC(=O)NC4CC(O)C4)c(Cl)c3F)c2cc1C(N)=O (stereo not shown)"
reported_endpoint = "pIC50"
readout_value = "< 5.30"


----------
target: EGFR (Homo sapiens (Human), UniProt P00533); experiment: Kinase inhibition, Mobility-Shift Assay; assay type: biochemical; settings: class; read-out: EGFR range of activity (IC50)
Sequence (P00533 25-1210): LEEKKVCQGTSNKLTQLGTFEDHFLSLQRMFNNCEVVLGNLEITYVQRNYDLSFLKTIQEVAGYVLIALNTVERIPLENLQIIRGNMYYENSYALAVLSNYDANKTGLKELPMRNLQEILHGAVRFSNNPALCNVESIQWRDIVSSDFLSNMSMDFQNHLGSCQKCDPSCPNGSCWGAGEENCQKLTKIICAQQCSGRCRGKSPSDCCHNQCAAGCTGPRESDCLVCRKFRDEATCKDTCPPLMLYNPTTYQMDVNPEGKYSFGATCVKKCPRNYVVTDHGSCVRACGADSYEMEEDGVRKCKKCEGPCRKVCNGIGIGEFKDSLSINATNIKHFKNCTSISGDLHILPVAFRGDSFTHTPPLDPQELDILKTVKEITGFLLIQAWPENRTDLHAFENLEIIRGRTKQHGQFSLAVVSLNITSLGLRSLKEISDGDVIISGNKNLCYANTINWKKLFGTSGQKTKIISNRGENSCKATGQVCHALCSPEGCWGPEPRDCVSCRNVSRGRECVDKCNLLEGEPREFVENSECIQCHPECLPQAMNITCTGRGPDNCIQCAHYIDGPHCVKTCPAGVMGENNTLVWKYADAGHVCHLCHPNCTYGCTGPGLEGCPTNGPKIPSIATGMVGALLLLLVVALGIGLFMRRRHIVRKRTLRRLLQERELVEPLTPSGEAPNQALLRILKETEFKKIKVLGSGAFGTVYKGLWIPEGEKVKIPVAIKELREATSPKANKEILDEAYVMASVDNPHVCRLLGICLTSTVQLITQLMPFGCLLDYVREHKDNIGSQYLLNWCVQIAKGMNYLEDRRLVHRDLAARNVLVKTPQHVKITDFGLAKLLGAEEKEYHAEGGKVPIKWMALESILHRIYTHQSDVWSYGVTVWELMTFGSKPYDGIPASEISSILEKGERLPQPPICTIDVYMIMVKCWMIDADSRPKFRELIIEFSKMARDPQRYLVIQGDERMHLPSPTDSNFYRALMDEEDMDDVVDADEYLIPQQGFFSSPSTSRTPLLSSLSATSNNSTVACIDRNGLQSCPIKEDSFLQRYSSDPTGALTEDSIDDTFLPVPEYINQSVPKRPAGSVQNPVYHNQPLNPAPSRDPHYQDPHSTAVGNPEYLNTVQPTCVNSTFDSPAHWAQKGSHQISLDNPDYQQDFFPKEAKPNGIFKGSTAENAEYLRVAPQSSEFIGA
pIC50: −log10 of the molar value.
reported-endpoint: pIC50

[[record]]
molecule = "CNC(=O)c1cc(Oc2ccc(NC(=O)Nc3ccc(Cl)c(C(F)(F)F)c3)c(F)c2)ccn1 [Regorafenib, reference compound]"
readout_value = "< 7.00"

[[record]]
molecule = "COc1cc2nccc(Oc3c(F)cc(NC(=O)NC4CC4)c(F)c3F)c2cc1C(N)=O"
readout_value = "< 7.00"

[[record]]
molecule = "COc1cc2nccc(Oc3c(F)cc(NC(=O)NC4CC4)c(N(C)C)c3F)c2cc1C(N)=O"
readout_value = "< 7.00"

[[record]]
molecule = "COc1cc2nccc(Oc3c(F)cc(NC(=O)NC(C)(C)C)c(Cl)c3F)c2cc1C(N)=O"
readout_value = "< 7.00"

[[record]]
molecule = "[2H]C([2H])([2H])Oc1c(Cl)c(NC(=O)NC2CC2)cc(F)c1Oc1ccnc2cc(OC)c(C(N)=O)cc12"
readout_value = "< 7.00"

[[record]]
molecule = "COc1cc2nccc(Oc3c(F)cc(NC(=O)NC[C@H](C)O)c(Cl)c3F)c2cc1C(N)=O"
readout_value = "< 7.00"

[[record]]
molecule = "C=CC1CC1(NC(=O)Nc1cc(F)c(Oc2ccnc3cc(OC)c(C(N)=O)cc23)c(F)c1Cl)C(=O)NC1CC1 (stereo not shown)"
readout_value = "< 7.00"

[[record]]
molecule = "COc1cc2nccc(Oc3c(F)cc(NC(=O)N(C)C(C)C)c(Cl)c3F)c2cc1C(N)=O"
readout_value = "< 7.00"

[[record]]
molecule = "COc1cc2nccc(Oc3c(Br)cc(NC(=O)NC4CC4)c(Cl)c3F)c2cc1C(N)=O"
readout_value = "< 7.00"

[[record]]
molecule = "COc1cc2nccc(Oc3c(F)cc(NC(=O)N[C@H](C)CO)c(Cl)c3F)c2cc1C(N)=O"
readout_value = "< 7.00"

[[record]]
molecule = "COc1cc2nccc(Oc3c(F)cc(NC(=O)NC4(C(F)(F)F)CC4)c(Cl)c3F)c2cc1C(N)=O"
readout_value = "< 7.00"

[[record]]
molecule = "COc1cc2nccc(Oc3c(F)cc(NC(=O)NC4CC4)c(Cl)c3F)c2cc1C(N)=O"
readout_value = "> 7.22"

[[record]]
molecule = "COc1cc2nccc(Oc3c(Cl)cc(NC(=O)NC4CC4)c(Br)c3F)c2cc1C(N)=O"
readout_value = "< 7.00"

[[record]]
molecule = "COc1cc2nccc(Oc3c(F)cc(NC(=O)NC4CC4)c(Br)c3F)c2cc1C(N)=O"
readout_value = "< 7.00"

[[record]]
molecule = "COc1cc2nccc(Oc3c(F)cc(NC(=O)NC4(C)CC4)c(Cl)c3F)c2cc1C(N)=O"
readout_value = "< 7.00"

[[record]]
molecule = "COc1cc2nccc(Oc3c(F)cc(NC(=O)NC4COC4)c(Cl)c3F)c2cc1C(N)=O"
readout_value = "< 7.00"

